protocol_description: molar heat capacity at constant pressure
condition_notes: 313 K; 101.33 kPa; Liquid; Small sample (50 mg) DSC
± gives the expanded uncertainty stated by the source.
// reported molar heat capacity at constant pressure for each item listed
measurement_name: molar heat capacity at constant pressure

* CCn1cc[n+](C)c1.O=S(=O)([N-]S(=O)(=O)C(F)(F)F)C(F)(F)F | 533 ± 28 J/K/mol
* CCCC[N+]1(C)CCCC1.O=S(=O)([N-]S(=O)(=O)C(F)(F)F)C(F)(F)F | 644 ± 33 J/K/mol
* CCCC[n+]1ccn(C)c1.O=S(=O)([N-]S(=O)(=O)C(F)(F)F)C(F)(F)F | 612 ± 32 J/K/mol
* CCCCn1cc[n+](C)c1.O=S(=O)([O-])C(F)(F)F [1-butyl-3-methylimidazolium trifluoromethanesulfonate] | 465 ± 24 J/K/mol

====

protocol_description: molar heat capacity at constant pressure
condition_notes: 293 K; 101.33 kPa; Liquid; Small sample (50 mg) DSC
// reported molar heat capacity at constant pressure for each item listed
measurement_name: molar heat capacity at constant pressure (J/K/mol)

* CCOS(=O)(=O)[O-].CCn1cc[n+](C)c1 [1-ethyl-3-methylimidazolium ethyl sulfate] | 388
* CCCC[n+]1ccn(C)c1.O=S(=O)([N-]S(=O)(=O)C(F)(F)F)C(F)(F)F | 595
* CCCCn1cc[n+](C)c1.O=S(=O)([O-])C(F)(F)F [1-butyl-3-methylimidazolium trifluoromethanesulfonate] | 455
* CCCCCCCCn1cc[n+](C)c1.O=S(=O)([N-]S(=O)(=O)C(F)(F)F)C(F)(F)F | 724

====

protocol_description: molar heat capacity at constant pressure
condition_notes: 358 K; 101.33 kPa; Liquid; Small sample (50 mg) DSC
# note: exactly 600 J/K/mol is not below, so it is no (0); use yes (1) for molar heat capacity at constant pressure strictly under it

- CCOS(=O)(=O)[O-].CCn1cc[n+](C)c1 [1-ethyl-3-methylimidazolium ethyl sulfate]: yes (1)
- CCCC[n+]1ccn(C)c1.O=S(=O)([N-]S(=O)(=O)C(F)(F)F)C(F)(F)F: no (0)
- CCn1cc[n+](C)c1.O=S(=O)([N-]S(=O)(=O)C(F)(F)F)C(F)(F)F: yes (1)
- CCCCCCCCn1cc[n+](C)c1.O=S(=O)([N-]S(=O)(=O)C(F)(F)F)C(F)(F)F: no (0)
- CCCCCCCCCCCCCC[P+](CCCCCC)(CCCCCC)CCCCCC.O=S(=O)([N-]S(=O)(=O)C(F)(F)F)C(F)(F)F: no (0)
- CCCC[N+]1(C)CCCC1.FC(F)(F)C(F)(F)[P-](F)(F)(F)(C(F)(F)C(F)(F)F)C(F)(F)C(F)(F)F: no (0)
- CCCCCC[n+]1ccn(C)c1.O=S(=O)([N-]S(=O)(=O)C(F)(F)F)C(F)(F)F: no (0)
- CCCCn1cc[n+](C)c1.O=S(=O)([O-])C(F)(F)F [1-butyl-3-methylimidazolium trifluoromethanesulfonate]: yes (1)

====

protocol_description: molar heat capacity at constant pressure
condition_notes: 298 K; 101.33 kPa; Liquid; Small sample (50 mg) DSC
// reported molar heat capacity at constant pressure for each item listed
measurement_name: molar heat capacity at constant pressure (J/K/mol)

- CCCCCCCCCCCCCC[P+](CCCCCC)(CCCCCC)CCCCCC.O=S(=O)([N-]S(=O)(=O)C(F)(F)F)C(F)(F)F: 1366
- CCn1cc[n+](C)c1.O=S(=O)([N-]S(=O)(=O)C(F)(F)F)C(F)(F)F: 525
- CCCC[n+]1ccn(C)c1.O=S(=O)([N-]S(=O)(=O)C(F)(F)F)C(F)(F)F: 599
- CCCC[N+]1(C)CCCC1.FC(F)(F)C(F)(F)[P-](F)(F)(F)(C(F)(F)C(F)(F)F)C(F)(F)C(F)(F)F: 769
- CCOS(=O)(=O)[O-].CCn1cc[n+](C)c1 [1-ethyl-3-methylimidazolium ethyl sulfate]: 389
- CCCCCC[n+]1ccn(C)c1.O=S(=O)([N-]S(=O)(=O)C(F)(F)F)C(F)(F)F: 667
- CCCC[N+]1(C)CCCC1.O=S(=O)([N-]S(=O)(=O)C(F)(F)F)C(F)(F)F: 629
- CCCCCCCCn1cc[n+](C)c1.O=S(=O)([N-]S(=O)(=O)C(F)(F)F)C(F)(F)F: 733
- CCCCn1cc[n+](C)c1.O=S(=O)([O-])C(F)(F)F [1-butyl-3-methylimidazolium trifluoromethanesulfonate]: 457
